For each record, write down the corresponding protein stability index.
B1: SLC6A17 (parent)
chain: KAVEEELDAEDRPAWNSKLQYILA

Variants of: B1
Experiment: protein stability index of a GFP-peptide fusion (GPS, HEK-293T) (PSI 1-6); higher = more stable;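 note: lentivirally expressed fusions sorted by FACS into six bins by GFP to DsRed ratio, PSI derived from sequencing read proportions per bin multiplied by bin number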
Details: c terminus: a fixed tail appended
Response field accepts a number only; no unit should be typed.

Summary for this variant, A24K : protein stability index is 3.08

Summary for this variant, A2G : protein stability index is 2.81

Summary for this variant, Y21C : protein stability index is 4.37

Summary for this variant, E6I : protein stability index is 1.47

Summary for this variant, Q20N : protein stability index is 2.9

Summary for this variant, E10L : protein stability index is 2.15

Summary for this variant, E6V : protein stability index is 2.13

Summary for this variant, A24N : protein stability index is 3.48

Summary for this variant, I22D : protein stability index is 4.86

Summary for this variant, R12L : protein stability index is 2.45

Summary for this variant, Q20I : protein stability index is 1.57

Summary for this variant, R12C : protein stability index is 2.8

Summary for this variant, N16R : protein stability index is 2.75

Summary for this variant, P13M : protein stability index is 2.79

Summary for this variant, E10K : protein stability index is 2.5

Summary for this variant, E5H : protein stability index is 2.32

Summary for this variant, A9R : protein stability index is 2.69

Summary for this variant, K1R : protein stability index is 2.34

Summary for this variant, A9Q : protein stability index is 2.44

Summary for this variant, Q20V : protein stability index is 2.13

Summary for this variant, D11T : protein stability index is 2.65

Summary for this variant, N16L : protein stability index is 2.06
